Recorded values, source ChEMBL document CHEMBL1138290.

# key: entry, value: pEC50
assay-overview: Cell cycle arrest in KB/HeLa cells assessed as accumulation at G2/M phase after 24 hrs by flow cytometric analysis
Assay type: functional, cell-based
test-conditions: Homo sapiens
Lab note: report pEC50 as minus log10 of the concentration in molar units, number only.

{"line-notation": "COc1ccc(S(=O)(=O)Oc2c3ccccc3cc3sccc23)cc1", "pEC50": 6.90}
{"line-notation": "COc1ccc(S(=O)(=O)Oc2c3ccccc3cc3ccccc23)cc1", "pEC50": 6.87}

Next:
Incoming: Query: pEC50; subject: `COC(=O)Nc1nc2cc(C(=O)c3cccs3)ccc2[nH]1`
Outgoing: 7.04

###

target-under-test: Tubulin (Sus scrofa, UniProt P02554+P02550)
assay-overview: Inhibition of porcine brain tubulin polymerization
# key: entry, value: IC50

Some solved entries appear below for comparison.
{"line-notation": "O=[N+]([O-])c1ccc(S(=O)(=O)Oc2c3ccccc3cc3sccc23)cc1", "IC50": "> 14 µM"}
{"line-notation": "COc1ccc(S(=O)(=O)Oc2c3cccc(Cl)c3cc3c(Cl)cccc23)cc1", "IC50": "> 10 µM"}

Incoming: Query: IC50; subject: `COc1ccc(S(=O)(=O)Oc2c3c(nc4ccccc24)CCCC3)cc1`
Outgoing: > 10 µM
